- Assay target: MurD (UniProt P14900)
- Protocol summary: relative enzymatic activity vs untreated control (fraction); higher = less inhibition
- Setup conditions: 100 µM; incubation time: 2 h at 37 C
Observable: relative enzymatic activity

CON=C(C(=O)NC1C(=O)N2C(C(=O)[O-])=C(CSc3nc(=O)c([O-])nn3C)CSC12)c1csc(N)n1.O.O.O.[Na+].[Na+] (centres undefined); 0.583
Cl.N=C(N)n1cccn1; 0.613
C=CC1=C(C(=O)O)N2C(=O)C(NC(=O)C(=NO)c3csc(N)n3)C2SC1 (centres undefined); 0.596
NC(=O)NN=Cc1ccc([N+](=O)[O-])o1; 0.559
COc1cc(Cc2cnc(N)nc2N)cc(OC)c1OC; 0.589
CCC(C)C1NC(=O)C(CCNCS(=O)(=O)[O-])NC(=O)C(NC(=O)C(CCNCS(=O)(=O)[O-])NC(=O)C(NC(=O)C(CCNCS(=O)(=O)[O-])NC(=O)CCCCC(C)C)C(C)O)CCNC(=O)C(C(C)O)NC(=O)C(CCNCS(=O)(=O)[O-])NC(=O)C(CCNCS(=O)(=O)[O-])NC(=O)C(C(C)CC)NC1=O.[Na+].[Na+].[Na+].[Na+].[Na+] (centres undefined); 0.591
CN(C)C1C(O)=C(C(N)=O)C(=O)C2(O)C(O)=C3C(=O)c4c(O)ccc(Cl)c4C(C)(O)C3CC12.Cl (centres undefined); 0.584
CCOC(=O)OC(C)OC(=O)C1N2C(=O)C(NC(=O)C(N)c3ccccc3)C2SC1(C)C.Cl (centres undefined); 0.598
O=C(NO)c1cn(-c2cccc(C(=O)N3CCC4(CC3)C(=O)NCN4c3ccccc3)c2)nn1; 0.36

###

Parameter: relative enzymatic activity. Scope: all listed entries.
- Assay target: DNA helicase (UniProt P0ACB1)
- Sequence (P0ACB1 whole entry): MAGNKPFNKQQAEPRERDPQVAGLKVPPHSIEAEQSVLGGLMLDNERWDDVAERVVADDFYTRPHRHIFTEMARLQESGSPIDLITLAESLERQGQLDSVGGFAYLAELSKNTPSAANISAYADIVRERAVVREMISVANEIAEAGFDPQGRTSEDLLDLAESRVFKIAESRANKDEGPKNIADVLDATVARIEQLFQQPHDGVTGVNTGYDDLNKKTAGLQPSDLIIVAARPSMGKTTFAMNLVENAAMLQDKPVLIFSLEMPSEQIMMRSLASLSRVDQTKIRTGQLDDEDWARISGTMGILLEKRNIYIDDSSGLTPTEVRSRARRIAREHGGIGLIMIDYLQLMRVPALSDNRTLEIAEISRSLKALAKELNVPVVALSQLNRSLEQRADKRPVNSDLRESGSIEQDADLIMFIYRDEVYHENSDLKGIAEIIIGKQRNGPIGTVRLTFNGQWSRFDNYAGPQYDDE
- Protocol summary: relative enzymatic activity vs untreated control (fraction); higher = less inhibition
- Setup conditions: 100 µM; incubation time: 2 h at 37 C
Observable: relative enzymatic activity

CON=C(C(=O)N[C@@H]1C(=O)N2C(C(=O)O)=C(CSc3nc(=O)c(O)nn3C)CS[C@H]12)c1csc(N)n1; 0.448
CC1CCc2cc(F)cc3c(=O)c(C(=O)O)cn1c23 (centres undefined); 0.593
CCn1nc(C(=O)O)c(=O)c2cc3c(cc21)OCO3; 0.479
CN(C)C1C(O)=C(C(N)=O)C(=O)C2(O)C(O)=C3C(=O)c4c(O)ccc(Cl)c4C(C)(O)C3CC12.Cl (centres undefined); 0.47
O=C(O)c1c(O)c2c([nH]c1=O)CCCC2; 0.479
Cn1sccc1=O; 0.607
NCC1OC(OC2C(N)CC(N)C(OC3OC(CO)C(O)C(N)C3O)C2O)C(N)CC1O (centres undefined); 0.45
CN[C@@H]1[C@H](O)[C@H](NC)[C@H]2O[C@@]3(O)C(=O)C[C@@H](C)O[C@H]3O[C@@H]2[C@H]1O; 0.508
COC1(NC(=O)CSCC#N)C(=O)N2C(C(=O)[O-])=C(CSc3nnnn3C)CSC21.[Na+] (centres undefined); 0.259

###

- Assay target: MurD (UniProt P14900)
- Sequence (whole entry): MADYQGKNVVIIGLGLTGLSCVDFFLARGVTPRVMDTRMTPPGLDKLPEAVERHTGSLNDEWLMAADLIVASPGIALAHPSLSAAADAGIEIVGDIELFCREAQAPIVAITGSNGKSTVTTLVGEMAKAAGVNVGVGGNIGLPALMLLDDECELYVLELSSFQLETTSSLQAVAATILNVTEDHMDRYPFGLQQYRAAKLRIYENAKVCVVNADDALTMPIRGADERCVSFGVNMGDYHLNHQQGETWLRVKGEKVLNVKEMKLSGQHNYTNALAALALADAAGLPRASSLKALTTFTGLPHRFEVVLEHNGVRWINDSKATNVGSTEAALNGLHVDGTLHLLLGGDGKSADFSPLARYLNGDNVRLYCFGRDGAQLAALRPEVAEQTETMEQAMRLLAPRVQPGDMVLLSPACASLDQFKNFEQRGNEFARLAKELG
- Protocol summary: relative enzymatic activity vs untreated control (fraction); higher = less inhibition
- Setup conditions: 100 µM; incubation time: 2 h at 37 C
Parameter: relative enzymatic activity. Scope: all listed entries.
Observable: relative enzymatic activity

CO/N=C(\C(=O)N[C@@H]1C(=O)N2C(C(=O)O)=C(C[n+]3ccn4ncccc43)CS[C@H]12)c1nsc(N)n1; 0.591
COC(=O)N/N=C/c1c[n+]([O-])c2ccccc2[n+]1[O-]; 0.604
Cn1cc(-c2[nH]c3cc(NC(=O)[C@H](N)C4CCCCC4)cc4c3c2C=NNC4=O)cn1; 0.599
NCC1OC(OC2C(N)CC(N)C(OC3OC(CO)C(O)C(N)C3O)C2O)C(N)CC1O (configuration not stated); 0.611
CC1COc2c(N3CCN(C)CC3)c(F)cc3c(=O)c(C(=O)O)cn1c23 (configuration not stated); 0.584
O=C(O)c1cn(C2CC2)c2cc(N3CCC(O)(COc4ccc(N5C[C@H](CO)OC5=O)cc4F)CC3)c(F)cc2c1=O; 0.583
CCN1CCN(c2cc3c(cc2F)c(=O)c(C(=O)O)cn3C2CC2)CC1; 0.59
CON=C(C(=O)NC1C(=O)N2C(C(=O)O)=C(CSC(=O)c3ccco3)CSC12)c1csc(N)n1.Cl (configuration not stated); 0.551
CC1CCc2c(N3CCC(O)CC3)c(F)cc3c(=O)c(C(=O)O)cn1c23 (configuration not stated); 0.566
NCC1OC(OC2C(N)CC(N)C(OC3OC(CO)C(O)C(N)C3O)C2O)C(N)C(O)C1O.O=S(=O)(O)O (configuration not stated); 0.647
CCn1cc(C(=O)O)c(=O)c2cc(F)c(N3CCNC(C)C3)c(F)c21.Cl (configuration not stated); 0.577
O=C([O-])C1=C(CSc2nnnn2CS(=O)(=O)[O-])CSC2C(NC(=O)C(O)c3ccccc3)C(=O)N12.[Na+].[Na+] (configuration not stated); 0.217
